Assay: soluble fraction after stress (log2 fold change); higher = more stays soluble; pooled small domains, quantitative proteomics
Conditions: stress: pH 4
Mark 1.0 for reported soluble fraction (log2) of -0.5 or greater; mark 0.0 for anything smaller.

Could you tell me if the measured soluble fraction (log2) of HMKTVLDSLLRILDSKELDIVVLRHIVGLTLTEIAKEKDMKKGTVFWMYNRAVKKLRLESERMGL reaches -0.5 or more?
0.0

Now give it for HMKGMIKVASMSLGADLGLYSRHLKYLGIVHRVVEESGGQSVYIQKLNDLHTAKESLELYLKNELKI too.
1.0

Now this one: HMESKPLTPSEIKKLRMDANMTQAGLAEVLGMTVKAVEAWESGRNIPSGAADKILRVMQKHPSVIGMMQS
1.0

HMAIKNKNEQLEAIIKFADLRGEFKTADIEELLSIKSSRARLLISELVKIGKLESIGSNRNRRYHIK , same question.
1.0

Same question, HMRMYDVNEYSDEELHRILDLSSPTDSELEARILQMIQKYKYTNGGDNEKMAVFFENIYHHFFD this time
0.0

// query: HMYSQIGYGSSGSDVRKLQEILNGKGYNLSVDGQFGAKTKSAVRDYQSKNGLSVDGIVGVNTWGKLT
1.0

Another: HMNVYEVKFGDTLDEIIKTYLFDIPVKKSILRQAVILANPHAFRRNNPHWMYSDRQLKLPELQDIRRAIF
0.0

Continue with HMSSEITYDKFIEMVDKDQVKEVTLQSGVLTVVPKIQKSYYQNASYKVNQMEDVDALTKRLEGTGIVFHY
1.0
